Test system: NCI-H1993
Experiment: relative viability (nuclei count vs DMSO), 5 days (fraction); higher = more cells survive
Settings: first compound 0.08 µM
outcomeMeasure: relative viability

• O=c1cc(-c2cccc3c2Sc2ccccc2S3)oc(N2CCOCC2)c1 + Cc1nc(NC(=O)N2CCC[C@H]2C(N)=O)sc1-c1ccnc(C(C)(C)C(F)(F)F)c1 [Alpelisib] (partner 2 µM) = 0.735
• O=c1cc(-c2cccc3c2Sc2ccccc2S3)oc(N2CCOCC2)c1 + O=C(c1cc(Cc2n[nH]c(=O)c3ccccc23)ccc1F)N1CCN(C(=O)C2CC2)CC1 [Olaparib] (partner 8 µM) = 1.05
• COc1nc(C)cnc1NS(=O)(=O)c1cccnc1-c1ccc(-c2nnco2)cc1 [Zibotentan] + CCNC(=O)c1noc(-c2cc(C(C)C)c(O)cc2O)c1-c1ccc(CN2CCOCC2)cc1 [Luminespib] (partner 0.01 µM) = 0.667

====

System: NCI-H1703
Experiment: relative viability (nuclei count vs DMSO), 5 days (fraction); higher = more cells survive
Conditions: first compound 0.3162 µM
The entries below are paired with their reported relative viability.
outcomeMeasure: relative viability

* CCN(CC)CCCCNc1ncc2cc(-c3cc(OC)cc(OC)c3)c(NC(=O)NC(C)(C)C)nc2n1 + CS(=O)(=O)CCNCc1ccc(-c2ccc3ncnc(Nc4ccc(OCc5cccc(F)c5)c(Cl)c4)c3c2)o1 [Lapatinib] (partner 2 µM) | 1.35
* O=c1cc(N2CCOCC2)oc2c(-c3cccc4c3sc3ccccc34)cccc12 + C[C@]1(O)C[C@@H](c2nc(-c3ccc4ccc(-c5ccccc5)nc4c3)c3c(N)nccn32)C1 [Linsitinib] (partner 1 µM) | 0.641

====

Tested on: HARA
Assay: relative viability (nuclei count vs DMSO), 5 days (fraction); higher = more cells survive
Settings: first compound 1 µM
outcomeMeasure: relative viability

* CCN(CC)CCCCNc1ncc2cc(-c3cc(OC)cc(OC)c3)c(NC(=O)NC(C)(C)C)nc2n1 + Nc1nc2[nH]cc(CCc3ccc(C(=O)N[C@@H](CCC(=O)O)C(=O)O)cc3)c2c(=O)[nH]1 [Pemetrexed] (partner 0.2 µM) | 0.281
* O=c1cc(N2CCOCC2)oc2c(-c3cccc4c3sc3ccccc34)cccc12 + O=C(c1cc(Cc2n[nH]c(=O)c3ccccc23)ccc1F)N1CCN(C(=O)C2CC2)CC1 [Olaparib] (partner 8 µM) | 0.792

====

Test system: 201T
Assay: relative viability (nuclei count vs DMSO), 5 days (fraction); higher = more cells survive
Conditions: first compound 0.8 µM
Recorded measurements of relative viability, one per entry
outcomeMeasure: relative viability

- O=c1cc(-c2cccc3c2Sc2ccccc2S3)oc(N2CCOCC2)c1 + Cc1cc(Nc2cc(N3CCN(C)CC3)nc(Sc3ccc(NC(=O)C4CC4)cc3)n2)n[nH]1 [Tozasertib] (partner 0.1 µM): 1.04
- O=c1cc(-c2cccc3c2Sc2ccccc2S3)oc(N2CCOCC2)c1 + NC(=O)Nc1cc(-c2cccc(F)c2)sc1C(=O)N[C@H]1CCCNC1 [AZD7762] (partner 0.2 µM): 0.741
- O=c1cc(-c2cccc3c2Sc2ccccc2S3)oc(N2CCOCC2)c1 + Nc1ncn([C@H]2C[C@H](O)[C@@H](CO)O2)c(=O)n1 [Decitabine] (partner 2 µM): 0.893
- O=c1cc(-c2cccc3c2Sc2ccccc2S3)oc(N2CCOCC2)c1 + Cc1nc(Nc2ncc(C(=O)Nc3c(C)cccc3Cl)s2)cc(N2CCN(CCO)CC2)n1 [Dasatinib] (partner 0.075 µM): 0.355
- COc1nc(C)cnc1NS(=O)(=O)c1cccnc1-c1ccc(-c2nnco2)cc1 [Zibotentan] + C[C@@H](Oc1cc(-c2cnn(C3CCNCC3)c2)cnc1N)c1c(Cl)ccc(F)c1Cl [Crizotinib] (partner 1 µM): 1.04

====

System: NCI-H1666
Test: relative viability (nuclei count vs DMSO), 5 days (fraction); higher = more cells survive
Conditions: first compound 6.325 µM
outcomeMeasure: relative viability

• COCC1(CO)C(=O)C2CCN1CC2 (stereo not drawn) [PRIMA-1MET] + Cc1nc(Nc2ncc(C(=O)Nc3c(C)cccc3Cl)s2)cc(N2CCN(CCO)CC2)n1 [Dasatinib] (partner 0.075 µM) = 0.846
• COCC1(CO)C(=O)C2CCN1CC2 (stereo not drawn) [PRIMA-1MET] + CC(=O)Nc1cccc(-n2c(=O)n(C3CC3)c(=O)c3c(Nc4ccc(I)cc4F)n(C)c(=O)c(C)c32)c1 [Trametinib] (partner 0.02 µM) = 0.759
• COCC1(CO)C(=O)C2CCN1CC2 (stereo not drawn) [PRIMA-1MET] + Cc1cc(Nc2cc(N3CCN(C)CC3)nc(Sc3ccc(NC(=O)C4CC4)cc3)n2)n[nH]1 [Tozasertib] (partner 0.1 µM) = 0.554
• COCC1(CO)C(=O)C2CCN1CC2 (stereo not drawn) [PRIMA-1MET] + N=C(N)NC(=N)NCCc1ccccc1 [Phenformin] (partner 250 µM) = 0.634
• COCC1(CO)C(=O)C2CCN1CC2 (stereo not drawn) [PRIMA-1MET] + CC(C)C[C@H](NC(=O)[C@H](Cc1ccccc1)NC(=O)c1cnccn1)B(O)O [Bortezomib] (partner 0.002 µM) = 0.983
• COCC1(CO)C(=O)C2CCN1CC2 (stereo not drawn) [PRIMA-1MET] + NC(=O)Nc1cc(-c2cccc(F)c2)sc1C(=O)N[C@H]1CCCNC1 [AZD7762] (partner 0.2 µM) = 0.817
• COCC1(CO)C(=O)C2CCN1CC2 (stereo not drawn) [PRIMA-1MET] + CC1(C)CCC(c2ccc(Cl)cc2)=C(CN2CCN(c3ccc(C(=O)NS(=O)(=O)c4ccc(N[C@H](CCN5CCOCC5)CSc5ccccc5)c(S(=O)(=O)C(F)(F)F)c4)cc3)CC2)C1 [Navitoclax] (partner 0.5 µM) = 0.895
• COCC1(CO)C(=O)C2CCN1CC2 (stereo not drawn) [PRIMA-1MET] + O=C(c1cc(Cc2n[nH]c(=O)c3ccccc23)ccc1F)N1CCN(C(=O)C2CC2)CC1 [Olaparib] (partner 8 µM) = 0.735

====

// reported relative viability for each item listed
Test system: NCI-H1792
Test: relative viability (nuclei count vs DMSO), 5 days (fraction); higher = more cells survive
Conditions: first compound 0.1 µM
outcomeMeasure: relative viability

• CCN(CC)CCCCNc1ncc2cc(-c3cc(OC)cc(OC)c3)c(NC(=O)NC(C)(C)C)nc2n1 + CC(=O)c1c(C)c2cnc(Nc3ccc(N4CCNCC4)cn3)nc2n(C2CCCC2)c1=O [Palbociclib] (partner 0.5 µM) = 0.568
• CCN(CC)CCCCNc1ncc2cc(-c3cc(OC)cc(OC)c3)c(NC(=O)NC(C)(C)C)nc2n1 + CC(=O)Nc1cccc(-n2c(=O)n(C3CC3)c(=O)c3c(Nc4ccc(I)cc4F)n(C)c(=O)c(C)c32)c1 [Trametinib] (partner 0.02 µM) = 0.415
• O=c1cc(N2CCOCC2)oc2c(-c3cccc4c3sc3ccccc34)cccc12 + CC(C)C[C@H](NC(=O)[C@H](Cc1ccccc1)NC(=O)c1cnccn1)B(O)O [Bortezomib] (partner 0.002 µM) = 0.965

====

// relative viability lookup, one value per entry
System: COR-L23
Assay: relative viability (nuclei count vs DMSO), 5 days (fraction); higher = more cells survive
Conditions: first compound 0.8 µM
outcomeMeasure: relative viability

• COc1nc(C)cnc1NS(=O)(=O)c1cccnc1-c1ccc(-c2nnco2)cc1 [Zibotentan] + O=C(CCCCCCC(=O)Nc1ccccc1)NO [Vorinostat] (partner 1 µM) = 0.351
• COc1nc(C)cnc1NS(=O)(=O)c1cccnc1-c1ccc(-c2nnco2)cc1 [Zibotentan] + Cc1nc(Nc2ncc(C(=O)Nc3c(C)cccc3Cl)s2)cc(N2CCN(CCO)CC2)n1 [Dasatinib] (partner 0.075 µM) = 0.488
• O=c1cc(-c2cccc3c2Sc2ccccc2S3)oc(N2CCOCC2)c1 + CC(=O)c1c(C)c2cnc(Nc3ccc(N4CCNCC4)cn3)nc2n(C2CCCC2)c1=O [Palbociclib] (partner 0.5 µM) = 0.393
• O=c1cc(-c2cccc3c2Sc2ccccc2S3)oc(N2CCOCC2)c1 + Cc1nc(NC(=O)N2CCC[C@H]2C(N)=O)sc1-c1ccnc(C(C)(C)C(F)(F)F)c1 [Alpelisib] (partner 2 µM) = 0.887
• COc1nc(C)cnc1NS(=O)(=O)c1cccnc1-c1ccc(-c2nnco2)cc1 [Zibotentan] + C[C@]1(O)C[C@@H](c2nc(-c3ccc4ccc(-c5ccccc5)nc4c3)c3c(N)nccn32)C1 [Linsitinib] (partner 1 µM) = 0.896

====

Tested on: RERF-LC-KJ
Experiment: relative viability (nuclei count vs DMSO), 5 days (fraction); higher = more cells survive
Details: first compound 0.3162 µM
relative viability values by entry
outcomeMeasure: relative viability

* O=c1cc(N2CCOCC2)oc2c(-c3cccc4c3sc3ccccc34)cccc12 + CS(=O)(=O)CCNCc1ccc(-c2ccc3ncnc(Nc4ccc(OCc5cccc(F)c5)c(Cl)c4)c3c2)o1 [Lapatinib] (partner 2 µM) | 0.902
* CCN(CC)CCCCNc1ncc2cc(-c3cc(OC)cc(OC)c3)c(NC(=O)NC(C)(C)C)nc2n1 + O=C(CCCCCCC(=O)Nc1ccccc1)NO [Vorinostat] (partner 1 µM) | 0.794
* CCN(CC)CCCCNc1ncc2cc(-c3cc(OC)cc(OC)c3)c(NC(=O)NC(C)(C)C)nc2n1 + CCNC(=O)c1noc(-c2cc(C(C)C)c(O)cc2O)c1-c1ccc(CN2CCOCC2)cc1 [Luminespib] (partner 0.01 µM) | 1.35

meta.source: the supplement of paper PMC10307832
